Provide the recorded fold-change in binding over parental HEK293 cells for the entries that follow.
molecular target: T1, human TMEM106B (human, UniProt Q9NUM4 2-274); test: flow cytometry, HEK293 cells transiently transfected with human TMEM106B
T1 construct: Full-length cDNA transiently transfected into HEK293 cells; also called huTMEM106B
Answers are plain numbers, in fold.

Report fold-change in binding over parental HEK293 cells for each item below.
1. TM-59 (antibody, V domains shown, Purified from mouse hybridoma) VH: QVQLQQSGAELAKPGASVKLSCKASGYTFISYWMHWVKQRPGQGLEWIGYVNPSSGYTKNNQKFKDKATLTADKSSSTAYMQLSSLTYEDSAVYYCAREGGSISDWYFDVWGTGTTVTVSS VL: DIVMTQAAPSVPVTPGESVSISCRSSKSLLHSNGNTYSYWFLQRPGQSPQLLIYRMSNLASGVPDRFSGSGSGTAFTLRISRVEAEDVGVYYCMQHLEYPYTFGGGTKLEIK
2. TM-61 (antibody, V domains shown, Purified from mouse hybridoma) VH: QVQLQQSGAELAKPGASVKLSCKASGYTFTNYWMNWVKQRPGQGLEWIGYINPSSDYTKYNQNFKDKATLTADKSSSTAYMQLNSLTYEDSAVYYCTRWGGSRSYWYFDVWGAGTTVTVSS VL: DIVMTQSPSSLSASAGEKVTMSCKSSQSLLNSGNQKNYLAWYQQKPGQSPKLLIYGASTRESGVPDRFTGSGSGTDFTLTISSVQAEDLAVYYCQNDSNYPFTFGGGTKLEMK
3. TM-92 (antibody, V domains shown, Purified from mouse hybridoma) VH: EVQLQQSGPELVKPGASVKIPCKASGYTFTDYTMDWVKQSPGKSLEWIGHINPNDGGTFYNQKFKGKATLTVDKSSSTAYMELRSLTSEDSAVYYCARWVYYYGISYEGGAMDYWGQGTSVTVSS VL: DVQITQSPSYLAASPGETITINCRASKSISKYLAWYQEKPGKTNKLLIYSGSTLQSGIPSRFSGSGSGTDFTLTISSLEPEDFAMYYCQQHNEYPWTFGGGTKLEIK

A.
8.71
5.07
9.14
